All figures here come from ChEMBL document CHEMBL3792297.

Would you kindly list GI50 for each of these molecules?
- protocol_description: Growth inhibition of human DU145 cells after 48 hrs by SRB assay
- Format: functional
- condition_set: DU-145, 48 h
Answers are plain numbers, in nM.

// worked examples, GI50 included
INSERT INTO results (substance_smiles, measurement_label, value_observed) VALUES
  ('COc1ccc(C(=O)N2c3ccccc3Sc3ccccc32)c(F)c1', 'GI50', 1400),
  ('COc1ccc(C(=O)N2c3ccccc3Sc3ccccc32)c(OC)c1', 'GI50', 491),
  ('COc1ccc(C(=O)N2c3ccccc3Sc3ccccc32)c(C(F)(F)F)c1', 'GI50', 433),
  ('O=C(c1ccc2c(c1)Sc1ccccc1N2)c1c[nH]c2ccccc12', 'GI50', 679),
  ('COc1ccc(C(=O)N2c3ccccc3Sc3ccccc32)cc1F', 'GI50', 3610);

Kindly consider the entry below.
Prompt line: Quick one: GI50 for "COc1ccc(C(=O)c2cc(OC)c(OC)c(OC)c2)cc1O" ?
Response line: 34
